# assayed-target: Beta-adrenergic receptor kinase 1 (Homo sapiens) (UniProt P25098)
# Sequence (P25098 whole entry, looked up): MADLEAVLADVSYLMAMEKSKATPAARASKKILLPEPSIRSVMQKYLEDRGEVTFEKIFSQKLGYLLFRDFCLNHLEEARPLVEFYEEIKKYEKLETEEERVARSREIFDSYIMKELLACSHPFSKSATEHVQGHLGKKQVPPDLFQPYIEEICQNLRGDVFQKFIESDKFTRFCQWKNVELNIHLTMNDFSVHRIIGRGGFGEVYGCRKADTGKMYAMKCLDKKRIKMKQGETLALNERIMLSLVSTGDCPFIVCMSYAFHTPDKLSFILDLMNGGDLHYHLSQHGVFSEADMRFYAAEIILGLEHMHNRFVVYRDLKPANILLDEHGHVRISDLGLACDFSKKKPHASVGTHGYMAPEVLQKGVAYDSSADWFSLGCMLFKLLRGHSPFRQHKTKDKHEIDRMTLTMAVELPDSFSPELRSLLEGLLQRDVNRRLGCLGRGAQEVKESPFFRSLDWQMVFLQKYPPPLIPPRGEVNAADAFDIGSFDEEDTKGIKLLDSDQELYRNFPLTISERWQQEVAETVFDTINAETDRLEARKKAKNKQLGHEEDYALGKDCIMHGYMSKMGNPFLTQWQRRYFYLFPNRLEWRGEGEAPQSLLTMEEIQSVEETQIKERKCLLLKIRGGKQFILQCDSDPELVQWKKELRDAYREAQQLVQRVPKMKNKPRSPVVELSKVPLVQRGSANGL
# experiment-summary: GRK2 binders displacing RNA aptamer, biochemical, validation, human GRK2, bead flow cytometry (AID 488806)
# protocol-conditions: bead-bound GRK2, FAM-aptamer displacement, at 10 µM, active compounds read high
Activity calls are given as the source filed them.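 Rule for the calls: active = aptamer binding inhibition above 30%, about 3 SD of noise from non-fluorescent compounds; inactive = inhibition at or below 30%.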
property: aptamer binding inhibition

> print(dat)
                                    compound                            assayed.target   readout.value
 1  CC12CN3CC(C)(CN(C1)C3c1ccc(Cl)cc1Cl)C2=O (configuration not stated)  Beta-adrenergic receptor kinase 1 (Homo sapiens) (UniProt P25098)   4% (inactive)
 2          CN(C)CC/C=C1\c2ccccc2COc2ccccc21  Beta-adrenergic receptor kinase 1 (Homo sapiens) (UniProt P25098)  -3% (inactive)
 3  COc1ccc(-c2coc3c(CN4CCOCC4)c(O)ccc3c2=O)cc1  Beta-adrenergic receptor kinase 1 (Homo sapiens) (UniProt P25098)  -6% (inactive)
 4                   O=c1[nH]cc(F)c(=O)[nH]1  Beta-adrenergic receptor kinase 1 (Homo sapiens) (UniProt P25098)  -3% (inactive)
 5  OC(CCCN1CCC(O)(c2ccc(Cl)cc2)CC1)c1ccc(F)cc1 (configuration not stated)  Beta-adrenergic receptor kinase 1 (Homo sapiens) (UniProt P25098)  -3% (inactive)
 6   C/C(CCc1oc2ccc(Cl)cc2c1-c1ccc(C)o1)=N\O  Beta-adrenergic receptor kinase 1 (Homo sapiens) (UniProt P25098)   0% (inactive)
 7  COC(=O)C1=CN(Cc2cccs2)C=C(C(=O)OC)C1c1cccc(Cl)c1  Beta-adrenergic receptor kinase 1 (Homo sapiens) (UniProt P25098)   5% (inactive)
 8  O=c1c(C(c2ccccc2)c2c(O)sc3ccccc3c2=O)c(O)sc2ccccc12  Beta-adrenergic receptor kinase 1 (Homo sapiens) (UniProt P25098)   1% (inactive)
 9  Cc1ccsc1C1NC(=O)c2ccccc2N1 (configuration not stated)  Beta-adrenergic receptor kinase 1 (Homo sapiens) (UniProt P25098)   1% (inactive)
10        O=C(O)c1ccc(C(=O)C(=O)c2ccccc2)cc1  Beta-adrenergic receptor kinase 1 (Homo sapiens) (UniProt P25098)   3% (inactive)
11  CC(=O)N(CCC(Cc1ccccc1)c1ccc2c(c1)OCO2)Cc1ccc(Cl)cc1 (configuration not stated)  Beta-adrenergic receptor kinase 1 (Homo sapiens) (UniProt P25098)  -1% (inactive)
12  O=C1C(Cc2ccccc2)NC(=S)N1c1ccccc1 (configuration not stated)  Beta-adrenergic receptor kinase 1 (Homo sapiens) (UniProt P25098)   5% (inactive)

Reference for the values: PubChem BioAssay
